- procedure text: The drug is tested on Z-003 corresponding to pig gut metagenome with ENA study accession number: PRJEB37062 and ENA sample accession number: ERS12561803 for biotransformation under anaerobic condition. The drug concentrations were measured over 9 timepoints collected between 0 and 24 hours of incubation by liquid-chromatography-coupled mass spectrometry (LC–MS); further: call rule not given here
- reported conditions: 2 µM
readout label: Bacterial Biotransformation

Completed entries (count: 4):
compound: CCCN1C[C@H](CSC)C[C@@H]2c3cccc4[nH]cc(c34)C[C@H]21.CS(=O)(=O)O [PERGOLIDE MESYLATE]
readout label: Bacterial Biotransformation
measured: Compound NOT metabolized
--
compound: CC(=O)OCC(=O)NCCCOc1cccc(CN2CCCCC2)c1 [ROXATIDINE ACETATE]
readout label: Bacterial Biotransformation
measured: Compound metabolized
--
compound: Cc1ccc(NC(=O)c2ccc(CN3CCN(C)CC3)cc2)cc1Nc1nccc(-c2cccnc2)n1 [IMATINIB]
readout label: Bacterial Biotransformation
measured: Compound NOT metabolized
--
compound: CCN(CC)C(=O)C1(c2ccccc2)CC1CN (centres undefined)
readout label: Bacterial Biotransformation
measured: Compound NOT metabolized

Recorded result, CCOC(=O)C1=C[C@]2(CC)CCCN3CCc4c(n1c1ccccc41)[C@@H]32 [VINPOCETINE] , Bacterial Biotransformation: Compound metabolized

Recorded result, CCN(C(C)=O)c1cccc(-c2ccnc3c(C#N)cnn23)c1 [ZALEPLON] , Bacterial Biotransformation: Compound metabolized
